- TESTED SYSTEM: peptide F (two-zinc-finger peptide, X = phenylalanine) (Artificial Sequence)
- Sequence (chain, as listed by the source): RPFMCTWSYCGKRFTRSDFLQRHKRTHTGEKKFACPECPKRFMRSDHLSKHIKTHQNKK
- PROTOCOL DETAILS: EMSA; 100 uM ZnCl2, 100 mM NaCl, 4 C
- PROTOCOL CONDITIONS: protein: synthetic; tags: none; chemically synthesized (Fmoc SPPS), C-terminal amide; label: 5'-32P on G chain
QUANTITY NAME: pKd
# reply with the number alone; pKd is -log10 of concentration in mol/L

Query: pKd; subject: unmethylated target DNA (dsDNA) DNA 1: GGGGCGGGGCC DNA 2: GGCCCCGCCCC 5.68

Now let's try a different one.
Quick check: pKd of methylated target DNA (dsDNA, 5mC at position 5 of G chain and position 6 of C chain) DNA 1: GGGGCGGGGCC DNA 2: GGCCCCGCCCC ? 5.25

Reference for the values: patent US20120238038
